Biological target: T1, CTLA-4-hFc (immunogen A; hFc-labeled CTLA-4 extracellular domain protein) (human, UniProt P16410 36-161)
T1 construct: range 36-161; Made in HEK293 cells, purified on protein A; also called CLTA-4-hFc; CTLA-4 protein; not shown: human IgG Fc fragment (hFc) of the pCpC vector
T1 sequence (looked up): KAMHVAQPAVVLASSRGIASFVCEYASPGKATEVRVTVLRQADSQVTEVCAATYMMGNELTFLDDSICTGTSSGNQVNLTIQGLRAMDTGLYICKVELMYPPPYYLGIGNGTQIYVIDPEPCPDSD
Assay: blocking assay, CTLA-4 protein, competitor B7.2
measured.metric: % Block at 200 nM (%)
Give your result in % as a bare value.

// below: answered binders
**Query** Supply recorded % Block at 200 nM for 31C12F3 fully human CTLA-4 antibody (human IgG1, kappa) (antibody, V domains shown, also called mAb010) VH: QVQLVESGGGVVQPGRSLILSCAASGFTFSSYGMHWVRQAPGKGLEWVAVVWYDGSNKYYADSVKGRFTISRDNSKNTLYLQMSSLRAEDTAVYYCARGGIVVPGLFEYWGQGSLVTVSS VL: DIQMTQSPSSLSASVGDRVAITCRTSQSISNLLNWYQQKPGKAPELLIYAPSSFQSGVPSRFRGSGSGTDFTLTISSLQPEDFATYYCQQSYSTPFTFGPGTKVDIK here.
**Result** 99.2

**Query** Identify the reported % Block at 200 nM for the following entry. 97A8D1 fully human CTLA-4 antibody (human IgG1, kappa) (antibody, V domains shown, also called mAb49; mAb049) VH: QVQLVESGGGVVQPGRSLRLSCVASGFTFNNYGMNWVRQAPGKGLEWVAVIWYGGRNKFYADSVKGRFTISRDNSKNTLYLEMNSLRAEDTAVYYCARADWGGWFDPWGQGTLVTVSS VL: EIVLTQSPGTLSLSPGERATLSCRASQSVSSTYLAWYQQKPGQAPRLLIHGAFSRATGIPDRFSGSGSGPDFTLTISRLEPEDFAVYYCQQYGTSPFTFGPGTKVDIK
**Result** 99.2

Here's the next entry for you.
**Query** Report % Block at 200 nM, nothing else, for this binder: 40C4C6 fully human CTLA-4 antibody (human IgG1, kappa) (antibody, V domains shown, also called mAb09; mAb009) VH: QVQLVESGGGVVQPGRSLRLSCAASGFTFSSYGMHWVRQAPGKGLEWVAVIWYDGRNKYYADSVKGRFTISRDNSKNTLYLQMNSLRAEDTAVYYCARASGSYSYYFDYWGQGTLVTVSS VL: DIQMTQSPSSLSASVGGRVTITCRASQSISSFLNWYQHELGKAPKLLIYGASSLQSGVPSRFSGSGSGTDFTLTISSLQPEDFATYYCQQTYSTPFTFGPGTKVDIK
**Result** 99.1

The origin of these recorded values is patent US20210324080A1.
